Origin of the recorded values: paper PMC9948168

# System: OVCAR-3
# test.description: NCI-60 one-dose screening
# Assay type: cell-based
# recorded.conditions: Homo sapiens, OVCAR-3, 10 μM; OVCAR-3, Ovarian Cancer; read-out: GI (%)
Below, each of the molecules is paired with its reported inhibition at 10 µM value.

# example entries with known answers
1. COc1cc(C=C2C(=O)Nc3ccc(Cl)cc32)ccc1OCc1ccccn1 (mixture of isomers)	7.98%
2. COc1cc(/C=C2/C(=O)Nc3ccc(Cl)cc32)ccc1OCc1ccccc1	-6.72%
3. COc1cc(/C=C2/C(=O)Nc3cc(Cl)ccc32)ccc1O	25.8%
4. COc1cc(C=C2C(=O)Nc3ccc(Cl)cc32)ccc1OCc1ccc(Cl)cc1 (mixture of isomers)	74 to 97%
5. COc1ccc(COc2ccc(/C=C3/C(=O)Nc4ccccc43)cc2OC)cc1	-14.7%

Consider now this further molecule.
Lab note: measured inhibition at 10 µM of COc1cc(C=C2C(=O)Nc3cc(Cl)ccc32)ccc1OCc1ccc(Cl)cc1 (mixture of isomers) was -3.06%
